- target.under.test: T1, MPP6, Q9NZW5
- T1 sequence (Q9NZW5 125-219, limits assumed, looked up): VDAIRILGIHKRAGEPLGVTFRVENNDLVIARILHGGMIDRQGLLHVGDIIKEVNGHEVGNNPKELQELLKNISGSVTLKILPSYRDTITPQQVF
- measurement.notes: holdup assay
- Parameters: key: below the threshold = too weak to quantify, mostly under pKd 3.1 to 4
- condition.parameters: plain residues with an end cap or a label only (N-terminal biotin on a linker: ado-ado)
experimental.readout: pKd

[
  {
    "binder": "ELSATVTTDC [TRIP6, Q15654]",
    "experimental.readout": "pKd",
    "result": "below the threshold"
  },
  {
    "binder": "SVTSERETNI [SLC16A7, O60669]",
    "experimental.readout": "pKd",
    "result": 3.52
  },
  {
    "binder": "PTPDLPQTRV [KLHDC7A, Q5VTJ3]",
    "experimental.readout": "pKd",
    "result": "below the threshold"
  },
  {
    "binder": "RFQQRMQTHV [KIRREL1, Q96J84]",
    "experimental.readout": "pKd",
    "result": "below the threshold"
  },
  {
    "binder": "EDLEDEWEVI [TECPR2, O15040]",
    "experimental.readout": "pKd",
    "result": "below the threshold"
  },
  {
    "binder": "SLNANEVEWF [RNF130, Q86XS8]",
    "experimental.readout": "pKd",
    "result": 4.05
  },
  {
    "binder": "TGLWKHETTV [ADGRA3, Q8IWK6]",
    "experimental.readout": "pKd",
    "result": "below the threshold"
  },
  {
    "binder": "LPAVCYDIDI [PTTG2, Q9NZH5]",
    "experimental.readout": "pKd",
    "result": 3.54
  },
  {
    "binder": "IDESKKEWLI [CNTNAP2, Q9UHC6]",
    "experimental.readout": "pKd",
    "result": 4.54
  },
  {
    "binder": "PPGKHLVTEV [KCNA7, Q96RP8]",
    "experimental.readout": "pKd",
    "result": "below the threshold"
  },
  {
    "binder": "ILRKSTTTTV [PRR16, Q569H4]",
    "experimental.readout": "pKd",
    "result": "below the threshold"
  },
  {
    "binder": "TNSRHGETTV [FZD2, Q14332]",
    "experimental.readout": "pKd",
    "result": "below the threshold"
  },
  {
    "binder": "NIAESLESLV [PTPRZ1, P23471]",
    "experimental.readout": "pKd",
    "result": "below the threshold"
  },
  {
    "binder": "ARGPPRESEV [FAM110D, Q8TAY7]",
    "experimental.readout": "pKd",
    "result": "below the threshold"
  },
  {
    "binder": "REEPDHSTEV [CCRL2, O00421]",
    "experimental.readout": "pKd",
    "result": "below the threshold"
  },
  {
    "binder": "KSRVAFFEEL [NF2, P35240;P35240-1]",
    "experimental.readout": "pKd",
    "result": "below the threshold"
  }
]

Ref: paper PMC9482650
